Biological target: Aldehyde oxidase (Homo sapiens)
Sequence (Q06278 whole entry): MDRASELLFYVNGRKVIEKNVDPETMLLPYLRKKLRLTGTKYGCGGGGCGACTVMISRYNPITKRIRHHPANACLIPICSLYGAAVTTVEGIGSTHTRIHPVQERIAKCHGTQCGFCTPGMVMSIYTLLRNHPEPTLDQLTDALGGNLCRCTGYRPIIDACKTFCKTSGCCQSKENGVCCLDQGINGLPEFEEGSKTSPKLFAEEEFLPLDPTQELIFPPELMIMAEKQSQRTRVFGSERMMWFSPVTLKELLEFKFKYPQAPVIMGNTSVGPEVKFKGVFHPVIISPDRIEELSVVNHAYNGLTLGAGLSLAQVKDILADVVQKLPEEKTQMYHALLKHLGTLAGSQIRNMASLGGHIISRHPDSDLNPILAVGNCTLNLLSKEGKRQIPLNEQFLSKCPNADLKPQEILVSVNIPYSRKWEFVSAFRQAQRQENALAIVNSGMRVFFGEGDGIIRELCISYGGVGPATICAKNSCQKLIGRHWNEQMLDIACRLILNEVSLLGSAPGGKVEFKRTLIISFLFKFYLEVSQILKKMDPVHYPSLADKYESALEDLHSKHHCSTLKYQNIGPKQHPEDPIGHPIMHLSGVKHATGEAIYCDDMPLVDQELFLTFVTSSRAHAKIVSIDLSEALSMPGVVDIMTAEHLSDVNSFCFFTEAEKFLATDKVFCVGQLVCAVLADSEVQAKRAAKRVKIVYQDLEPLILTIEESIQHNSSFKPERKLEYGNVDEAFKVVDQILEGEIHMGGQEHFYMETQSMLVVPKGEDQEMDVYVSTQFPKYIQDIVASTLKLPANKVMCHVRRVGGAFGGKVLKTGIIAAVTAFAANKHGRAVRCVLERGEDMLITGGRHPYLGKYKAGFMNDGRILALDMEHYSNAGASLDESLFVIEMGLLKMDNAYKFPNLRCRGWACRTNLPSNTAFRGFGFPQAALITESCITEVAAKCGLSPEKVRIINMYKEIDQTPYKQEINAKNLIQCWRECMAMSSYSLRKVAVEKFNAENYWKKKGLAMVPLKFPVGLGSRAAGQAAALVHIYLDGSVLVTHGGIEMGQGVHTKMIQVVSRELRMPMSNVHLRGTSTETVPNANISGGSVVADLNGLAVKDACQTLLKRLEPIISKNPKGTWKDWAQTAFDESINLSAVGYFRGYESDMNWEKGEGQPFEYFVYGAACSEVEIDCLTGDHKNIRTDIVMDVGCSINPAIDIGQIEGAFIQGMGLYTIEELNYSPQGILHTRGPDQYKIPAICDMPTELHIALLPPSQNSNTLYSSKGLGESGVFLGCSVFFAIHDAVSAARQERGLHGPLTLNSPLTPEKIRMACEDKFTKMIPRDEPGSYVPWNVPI
Experiment: Drug metabolism in cryopreserved human hepatocytes assessed as aldehyde oxidase-mediated parent compound retention time at 10 uM by LC-MS extracted ion chromatogram analysis
Assay type: ADME, cell-based, Hepatocyte
QUANTITY_KIND: Retention time (min)
Please state the figure in min; there is no need to write the unit.

MOLECULE	Retention time (min)
CN1CCC(Nc2ncc3nc(=O)[nH]c(Nc4ccc(F)c(Cl)c4)c3n2)CC1	10.7

Let's switch to this molecule now.
In: What Retention time appears in the records for this molecule with Aldehyde oxidase (Homo sapiens)? CN1CCC(Nc2ncc3ncnc(Nc4ccc(F)c(Cl)c4)c3n2)CC1 [FALNIDAMOL]
Out: 12.5
